Target: Gβ1γ2 (Gβ1 mutants) (UniProt P54311+P63212, Y145A)
Construct: made in house; host or cells: Sf9 insect cells (baculovirus), partially purified via (His)6-Gαi1 on Ni-NTA
Experiment: Phage ELISA: binding of peptide-displaying phage to wild-type or alanine-substituted b-βγ
Design: species or system rat
Settings: Gβ1 Tyr145Ala; mean ± SD
Answer not satisfied if % of Wild-Type Signal is under 3%, and satisfied if it is 3% or more.

Please indicate if the recorded % of Wild-Type Signal for SCGHGLKVQSTIGACA [Compound 3C] meets or exceeds 3%.
not satisfied

Reported % of Wild-Type Signal at or above 3%? SCEKRYGIEFCT [Compound C4]
satisfied

Is the recorded value of % of Wild-Type Signal equal to or greater than 3% for this sequence? SIGKALFILGYPDYD [Compound 3.14]
not satisfied

Does the reported % of Wild-Type Signal for SCKRTKAQILLAPCT [Compound C1] fall at or above the 3% mark?
satisfied

Please indicate if the recorded % of Wild-Type Signal for WCPPKAMTQLGIKAC [Compound C14] meets or exceeds 3%.
not satisfied

# bool: % of Wild-Type Signal of SCARFFGTPGCT [Compound C8] >= 3%
satisfied
